System: human iPS cell-derived T lymphocyte
measured_endpoint: judgment result obtained in this Example (in vitro micronucleus test)

O=P1(N(CCCl)CCCl)NCCCO1 (stereo not shown) [CPA, cyclophosphamide monohydrate]: positive
CCOS(C)(=O)=O [EMS, ethyl methanesulfonate]: positive
CO[C@@]12[C@H](COC(N)=O)C3=C(C(=O)C(C)=C(N)C3=O)N1C[C@@H]1N[C@@H]12: positive
